Assay details: Novel Modifiers of Survival Motor Neuron (SMN) Protein: Gene Identification via Genome-wide siRNA Screen;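 further: luminescence tracks full-length SMN protein made from the SMN2 reporter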
Condition description: HEK293T SMN2-luciferase reporter, siRNA knockdown, 72 h; actives lie on both sides
In all, about 31,000 sequences went through this assay and about 1,400 (4.5%) were called active. Shown is part of a subset that was picked to be rich in actives.
Measurement name: median seed-adjusted z-score

| Sequence record | Observed value |
| --- | --- |
| AGGAGGUUACGGCACAAAATT against STK11 | 0.348 (inactive) |
| GGACCACAAGGGAAUACAATT against KHDRBS1 | 0.0916 (inactive) |
| GGACUUACCUUCAACCAAUTT against RSF1 | 0 (inactive) |
| GCAGAAGACUAGAGAGACUTT against ABCC5 | 0.00533 (inactive) |
| GGAUCGAUUCUGAAUAUGATT against PAPSS1 | -0.648 (inactive) |
| GGGUUAGACGGAUACAAGATT against LILRA2 | -0.103 (inactive) |

IN: Identify median seed-adjusted z-score associated with the sequence GAGAGAUUGUGAUUGGAGATT against BHMT
OUT: 0 (inactive)

IN: Identify median seed-adjusted z-score associated with the sequence GCCUACCCAUUUGUGAACATT against PEX12
OUT: -0.129 (inactive)

IN: Identify median seed-adjusted z-score associated with the sequence GGAGACUAGUGGUGGGAUATT against CCL16
OUT: -0.308 (inactive)

IN: Identify median seed-adjusted z-score associated with the sequence GCUACGAAAUGCUUGCUCATT against GALT
OUT: 0.484 (inactive)

IN: Identify median seed-adjusted z-score associated with the sequence CCACUAGCACAUUCCGCAATT against RBP2
OUT: 0.0132 (inactive)

IN: Identify median seed-adjusted z-score associated with the sequence GAGUCCCAUUUACAGCUAUTT against PFTK2
OUT: -1.16 (active)

IN: Identify median seed-adjusted z-score associated with the sequence AGAAGGACGUGUCCAAGGATT against FOXC2
OUT: -0.792 (inactive)

IN: Identify median seed-adjusted z-score associated with the sequence GCAUAACUGUAACAGAGAATT against RPP30
OUT: -0.656 (inactive)

---

Assay details: Novel Modifiers of Survival Motor Neuron (SMN) Protein: Gene Identification via Genome-wide siRNA Screen;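 further: luminescence tracks full-length SMN protein made from the SMN2 reporter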
Condition description: HEK293T SMN2-luciferase reporter, siRNA knockdown, 72 h; actives lie on both sides
Hit rate of the full screen: of about 31,000 sequences, about 1,400 (4.5%) were called active.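 Rule for the calls: active = median seed-adjusted z-score above 1 or below -1; inactive = the rest.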 The sample as a whole holds a higher share of actives than the screen did.
Choose the fitting class; nothing outside t for active, f for inactive is accepted.

As a guide, the following entries are already answered.
| Sequence record | Assigned label |
| --- | --- |
| GGACUUCAAUAUCGCAGUATT against PLCE1 | f |
| CAGUGAGGUGAAACAAAUATT against DNAJC8 | t |
| GGAAAGUUGUGGGUCUAAUTT against SERPINA7 | f |

IN: Could you check what this test reported for GGAAGCUCCUUGUCAAGAUTT against MECP2 ?
OUT: f

IN: Could you check what this test reported for GAGCUGCAACUGACAUCUUTT against PLTP ?
OUT: t

IN: Could you check what this test reported for CGCUCACACUGGGUUCCAATT against SLC34A1 ?
OUT: f

IN: Could you check what this test reported for CCACCUCUACCAAACAUUUTT against IL2RG ?
OUT: f

IN: Could you check what this test reported for CCCAUAAUAUCAUUGAGAATT against SREBF2 ?
OUT: f

IN: Could you check what this test reported for GGUUUGUGGUGGAAGAUUATT against PLCD3 ?
OUT: f

IN: Could you check what this test reported for GCAGCAACCUUGUCAUCCATT against ZNF692 ?
OUT: f

IN: Could you check what this test reported for CUCAAGAACUGUCAAGUAATT against GSK3B ?
OUT: f

IN: Could you check what this test reported for CCUCAUGCCUUAAUGAUCATT against ZNF561 ?
OUT: f

---

Assay details: Novel Modifiers of Survival Motor Neuron (SMN) Protein: Gene Identification via Genome-wide siRNA Screen;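 further: luminescence tracks full-length SMN protein made from the SMN2 reporter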
Condition description: HEK293T SMN2-luciferase reporter, siRNA knockdown, 72 h; actives lie on both sides
The campaign covered roughly 31,000 sequences. About 1,400 (4.5%) were called active. Shown is part of a subset that was picked to be rich in actives.
Measurement name: median seed-adjusted z-score

Answered examples (5):
| Sequence record | median seed-adjusted z-score |
| --- | --- |
| CGCAAUAACUGUUUGGUAUTT against EGLN1 | 2.05 (active) |
| GCCUGUGAAGUGAACCUGATT against TMPRSS6 | 1.29 (active) |
| CCAUGGAUAUGGAAACCCATT against ALPK3 | 0.365 (inactive) |
| GAAGAUAUGCAACAGCCUATT against UNC5B | -0.0207 (inactive) |
| GGAUUUCCAGGGAUAUUUATT against CDKN2B | 0.0154 (inactive) |

IN: Identify median seed-adjusted z-score associated with the sequence UCCAGACUCUGGUCACCAATT against CREB3L1
OUT: 0.708 (inactive)

IN: Identify median seed-adjusted z-score associated with the sequence CCCUUACUACAACUACAAATT against ZBTB38
OUT: 0.448 (inactive)

IN: Identify median seed-adjusted z-score associated with the sequence CCUCAUUGAUCAUCACCGATT against ZNF567
OUT: -0.114 (inactive)

IN: Identify median seed-adjusted z-score associated with the sequence AGAUCUUCGCAAAUACUGUTT against KRT18
OUT: 0.558 (inactive)

IN: Identify median seed-adjusted z-score associated with the sequence GGACGACUCUGAUCUGGAUTT against DYNC1I1
OUT: -0.716 (inactive)

IN: Identify median seed-adjusted z-score associated with the sequence AGAAGACCCGUAGACUGAATT against NEUROG2
OUT: -0.366 (inactive)

IN: Identify median seed-adjusted z-score associated with the sequence ACAUGAUCAUCAGUGUGAATT against FABP4
OUT: 0.227 (inactive)

IN: Identify median seed-adjusted z-score associated with the sequence ACAACGUGGUGAGAUGCAATT against LOXL1
OUT: 0.0435 (inactive)

IN: Identify median seed-adjusted z-score associated with the sequence GGUUAACCCAGAACGUAAATT against TCP1
OUT: -1.02 (active)

IN: Identify median seed-adjusted z-score associated with the sequence CCUGGACGAGUUUAUAAUATT against AP1S3
OUT: 0.153 (inactive)

IN: Identify median seed-adjusted z-score associated with the sequence CAGCUUUACGAGUAUGCAATT against HS6ST3
OUT: -0.405 (inactive)

IN: Identify median seed-adjusted z-score associated with the sequence CUGUCGCUGUCUGACCAGATT against ESRRA
OUT: -0.833 (inactive)

IN: Identify median seed-adjusted z-score associated with the sequence CAUUCACGGAGAUAAGAAATT against ALDH1L1
OUT: 0.0289 (inactive)

IN: Identify median seed-adjusted z-score associated with the sequence CCCAGGAAGUUCUACUACATT against HS6ST1
OUT: -0.436 (inactive)

---

Assay details: Novel Modifiers of Survival Motor Neuron (SMN) Protein: Gene Identification via Genome-wide siRNA Screen;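 further: luminescence tracks full-length SMN protein made from the SMN2 reporter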
Condition description: HEK293T SMN2-luciferase reporter, siRNA knockdown, 72 h; actives lie on both sides
Hit rate of the full screen: of about 31,000 sequences, about 1,400 (4.5%) were called active.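 How the source made its calls: active means median seed-adjusted z-score above 1 or below -1; inactive means the rest.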 The full list was thinned out, with actives kept by preference.
Choose the fitting class; nothing outside active, inactive is accepted.

| Sequence record | Assigned label |
| --- | --- |
| CUACCGAUGCUGAAAGACATT against PGM3 | inactive |
| GCCUAGAGGAUACCCAAAATT against NPVF | inactive |
| GGGUGCACCAGAAACAUUATT against VEZF1 | inactive |
| GGUCGAGUUCUACUACAAATT against IPO11 | inactive |
| CAGAACCUGUUGUAGAAAATT against GSPT2 | inactive |

IN: Could you check what this test reported for GACGAGACCUCUUCUCUCATT against ART1 ?
OUT: inactive

IN: Could you check what this test reported for GCAAGAUCCCAAAUCAGCATT against ADAT1 ?
OUT: inactive

IN: Could you check what this test reported for CCACGUGAUAAAUCAAGAATT against PRPF4B ?
OUT: active

---

We begin with a simple list: items and their reported median seed-adjusted z-score.
Assay details: Novel Modifiers of Survival Motor Neuron (SMN) Protein: Gene Identification via Genome-wide siRNA Screen;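 further: luminescence tracks full-length SMN protein made from the SMN2 reporter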
Condition description: HEK293T SMN2-luciferase reporter, siRNA knockdown, 72 h; actives lie on both sides
About 1,400 (4.5%) of roughly 31,000 sequences were called active. The entries come from a sample that favours actives as a whole.
Lab note: record just the number, no unit beside it.

Answered examples (3):
| Sequence record | median seed-adjusted z-score |
| --- | --- |
| GGGAAGUGGUAAAUAAAGATT against MCM7 | 0.0993 |
| GGAUGUUCCAAAUCACGGATT against MBTD1 | 0.0649 |
| CCACAUAGGUCAGAAACGATT against CLDN17 | 0 |

IN: Identify median seed-adjusted z-score associated with the sequence CUACUUAAGUGUGAUAAUATT against OCLN
OUT: 0.232

The origin of these recorded values is PubChem BioAssay AID1347426.
